Test system: N. fowleri trophozoites
Assay procedure: Anti-amoebic viability assay (CellTiter-Blue) with microscopic observation
Format: cell-based, Naegleria fowleri
Experimental setup: CC50 of C6 glial cell divided by IC50 of inhibition of N. fowleri
Note to self: class labels come from recorded Selectivity Index, ranges listed here: band 1: < 2; band 2: ≥ 2 and < 3; band 3: ≥ 3

{"Molecular string": "CCCCCCCCCCCCCCCCCCOC[C@@H]1CCC[C@H]1OP(=O)([O-])OCC[N+](C)(C)C", "Discrete label": "band 1"}
{"Molecular string": "CCCCCCCCCCCCCCCCCCCCCCOC[C@@H]1CCC[C@H]1OP(=O)([O-])OCC[N+](C)(C)C", "Discrete label": "band 3"}
{"Molecular string": "CCCCCCCCCCCCCCCCCCO[C@H]1CCC[C@H]1COP(=O)([O-])OCC[N+](C)(C)C", "Discrete label": "band 2"}
{"Molecular string": "CCCCCCCCCCCCCO[C@@H]1CCC[C@H]1COP(=O)([O-])OCC[N+](C)(C)C", "Discrete label": "band 3"}
{"Molecular string": "CCCCCCCCCCCCCCCCCCCCO[C@@H]1CCC[C@H]1COP(=O)([O-])OCC[N+](C)(C)C", "Discrete label": "band 2"}
{"Molecular string": "CCCCCCCCCCCCCCCCCCCCCCO[C@H]1CCC[C@H]1COP(=O)([O-])OCC[N+](C)(C)C", "Discrete label": "band 1"}
{"Molecular string": "CCCCCCCCCCCCCO[C@H]1CCC[C@H]1COP(=O)([O-])OCC[N+](C)(C)C", "Discrete label": "band 2"}
{"Molecular string": "CCCCCCCCCCCCCCCCCCCCO[C@H]1CCC[C@H]1COP(=O)([O-])OCC[N+](C)(C)C", "Discrete label": "band 1"}
{"Molecular string": "CCCCCCCCCCCCCCCCCCCCCCO[C@@H]1CCC[C@H]1COP(=O)([O-])OCC[N+](C)(C)C", "Discrete label": "band 1"}
{"Molecular string": "CCCCCCCCCCCCCOC[C@@H]1CCC[C@H]1OP(=O)([O-])OCC[N+](C)(C)C", "Discrete label": "band 3"}
